Some compounds, each annotated with its measured MIC.
# System: Trichophyton rubrum
# EXPERIMENT: minimum inhibitory concentration (MIC) against fungi, Trich. rubr.
# Format: cell-based
# Text: As examples of the effectiveness of the compounds of general Formula III against fungi, Table I indicates the minimum inhibitory concentrations (MIC) of several compounds. The comparison compounds are the known 2-Dimethylamino-6-(β-diethylaminoethoxy)-benzothiazole dihydrochloride and two 5-nitrothiazole derivatives substituted in the 2-position, which are known in the literature (J. Med. Chem. 12 [1969] 303).
QUANTITY: MIC (µg/mL)

{"columns": ["SMILES_INPUT", "VALUE_OBSERVED"],
 "data": [
  ["O=C(c1ccc(Br)s1)c1ncc([N+](=O)[O-])s1", 1.6],
  ["CCOC(=N)c1ncc([N+](=O)[O-])s1", 50],
  ["Cc1ccc(C(=O)c2ncc([N+](=O)[O-])s2)c(F)c1C", 3.1],
  ["Cc1cc(C(=O)c2ncc([N+](=O)[O-])s2)c(C)c(C)c1O", 3.1],
  ["CC(=O)NN=Cc1ncc([N+](=O)[O-])s1", 12.5],
  ["CCN(CC)CCOc1ccc2nc(N(C)C)sc2c1.Cl.Cl", 50]
]}
